- system-under-test: GOPC, Q9HD26
- assay-summary: holdup assay
- Set-up: key: below the threshold = too weak to quantify, mostly under pKd 3.1 to 4
- run-parameters: plain residues with an end cap or a label only (N-terminal biotin on a linker: ado-ado)
property-label: pKd

{"binder": "QKAPTKEFYA [SDC2, P34741]", "reported-value": "below the threshold"}
{"binder": "NVYGIESVKI [GRIA2, P42262]", "reported-value": "below the threshold"}
{"binder": "ARSAAASNYV [CLDN4, O14493]", "reported-value": "below the threshold"}
{"binder": "RDPPAEWTRV [PTPN18, Q99952]", "reported-value": 4.3}
{"binder": "TISFTQTSQF [SLC1A1, P43005]", "reported-value": "below the threshold"}
{"binder": "KPGKGSETVV [FZD4, Q9ULV1]", "reported-value": 3.73}
{"binder": "LKDDELKTKL [SLCO1A2, P46721]", "reported-value": 3.94}
{"binder": "EDLEDEWEVI [TECPR2, O15040]", "reported-value": "below the threshold"}
